Reported Ki values follow for various molecules
# test summary: Inhibition of c-AMP phosphodiesterase activity in guinea pig tracheal muscle
// note: answer is a bare numeric in µM

Below, 5 molecules whose answers are already recorded.
CCCCn1cnc2c1c(=O)[nH]c(=O)n2CCC    36.5
CCCn1c(=O)n(CC)c(=O)c2[nH]cnc21    24.1
CCCn1c(=O)n(C)c(=O)c2[nH]cnc21    10.6
CCCCn1c(=O)[nH]c(=O)c2[nH]cnc21    32
CCCn1c(=O)c2nc[nH]c2n(C)c1=O    26

// returns reported Ki for input CCCn1cnc2c1c(=O)n(C)c(=O)n2CCC 30.8

// returns reported Ki for input CCCn1cnc2c1c(=O)[nH]c(=O)n2CCC 35

// returns reported Ki for input Cn1c(=O)[nH]c2[nH]cnc2c1=O [1-METHYLXANTHINE] 163
